Target: IMP-1 (Serratia marcescens, UniProt P52699)
Sequence (P52699 whole entry, looked up, species assumed): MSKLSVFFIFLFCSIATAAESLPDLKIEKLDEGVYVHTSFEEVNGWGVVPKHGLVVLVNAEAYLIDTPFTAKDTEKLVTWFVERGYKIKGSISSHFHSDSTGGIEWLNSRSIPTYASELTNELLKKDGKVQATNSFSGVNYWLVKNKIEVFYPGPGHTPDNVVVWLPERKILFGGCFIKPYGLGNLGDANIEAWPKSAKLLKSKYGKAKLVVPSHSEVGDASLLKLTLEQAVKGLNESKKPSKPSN
Assay: biochemical
Assay type: biochemical
Settings: fluorescence assay, CCF2-FA substrate, 2 pM enzyme, 2 hours at 25° C.; read-out: IMP-1 IC50
MEASURED_PARAMETER: pIC50
Reminder that pIC50 is minus the log10 of a molar concentration.

>  <TEST_SMILES>
Nc1nc2cccc(-c3ccc(S(=O)(=O)N4CCNCC4)c(S(N)(=O)=O)c3-c3nn[nH]n3)c2[nH]1

>  <pIC50>
8.51

$$$$
>  <TEST_SMILES>
Nc1nc2c(-c3ccc(S(=O)(=O)N[C@@H]4CCNC4)c(S(N)(=O)=O)c3-c3nnn[nH]3)cc(F)cc2[nH]1

>  <pIC50>
9.56

$$$$
>  <TEST_SMILES>
N#Cc1cccc(-c2ccc(S(=O)(=O)N[C@@H]3CCNC3)c(S(N)(=O)=O)c2-c2nnn[nH]2)c1N

>  <pIC50>
8.85

$$$$

// moving on: another record for pIC50
Inquiry: Annotate the compound Nc1nc2c(-c3ccc(S(=O)(=O)N4CCC[C@H](N)C4)c(S(N)(=O)=O)c3-c3nnn[nH]3)cccc2s1 with its measured pIC50.
Reply text: 8.65
